Tested on: UACC-62
procedure details: NCI tumour cell line growth inhibition, 48 h
Calls of active or inactive are those of the source. Cut-off read from the data, not from the text of the source: active = GI50 up to about 1.1 µM and inactive = higher. Where a SMILES comes first, the peptide text is derived from it. [ ]: non-standard residue; d: D form. The star is where a group is joined. Cbz = O=C(OCc1ccccc1)*; Aib = CC(C)(N)C(=O)O; OBn = c1ccc(CO*)cc1
Record form. Attribute: GI50. Fill in for each entry.

Field: example entries. Status: answers known.
# compound, measured metric, experimental result
records = [
    ("Cc1ccc2nc(C(=O)O)c(=O)[nH]c2c1", "GI50", "> 100 µM (inactive)"),
    ("CN(C)/C=C(\\C(=O)c1ccccc1)n1nc(-c2ccccc2)cc1-c1ccccc1", "GI50", "> 10 µM (inactive)"),
    ("CC(C)(C)C(=O)N1CCN(C=O)C1=S", "GI50", "32.1 µM (inactive)"),
    ("CC(C)(C(=O)N(C(=O)N1CCN(c2ccccc2)CC1)S(=O)(=O)c1ccccc1)c1ccc(Cl)cc1", "GI50", "40.6 µM (inactive)"),
]

Below is a list of compounds. For each, state its recorded GI50.
1. Cn1ccc(C(=O)N2CCSC2=S)c(OCc2ccccc2)c1=O
2. O=C(/C=C/c1ccc(Cl)c(Cl)c1)c1ccc(F)cc1
3. CC(NC(=O)C(C)(C)NC(=O)C(CC(=O)OCc1ccccc1)NC(=O)OCc1ccccc1)C(N)=O (configuration not stated) (Cbz-Asp(OBn)-[Aib]-Ala-NH2; configuration not given here)
4. CC1=C[C@@H](C)C[C@]2(C)CC[C@H](O2)[C@]23CC[C@](C)(C[C@H](O2)[C@@H]2O[C@@](C)(CC2=O)[C@@H](O)[C@H]2CC[C@@]4(CCC[C@@H](O4)[C@H](C)C(=O)O[C@H]4C[C@H]([C@]5(O)OCC[C@H](C)[C@@H]5O)O[C@H]4C=C1)O2)O3
5. CCOC1NC(=O)Oc2ccccc21 (configuration not stated)
6. COC(=O)c1cc(CNCCc2c[nH]c3ccccc23)on1
7. C[Si](C)(c1ccccc1)[C@H]1CCCC=C1CCNC1c2ccccc2CCc2ccccc21

["> 100 µM (inactive)", "14.7 µM (inactive)", "> 100 µM (inactive)", "0.00461 µM (active)", "> 100 µM (inactive)", "> 100 µM (inactive)", "61.4 µM (inactive)"]

Below is a list of compounds. For each, state its recorded GI50.
1. Cc1c2ccccc2c(C)n2c1nc1cc3ccccc3cc12
2. O=c1n(CC2CO2)c(=O)n(CC2CO2)c(=O)n1CC1CO1 (configuration not stated) [TEROXIRONE]
3. CCN(CC)C(=O)COc1cc2c(O)c3c(O)c(C)c4c(c13)C(=O)C(C)(OC=CC(OC)C(C)C(OC(C)=O)C(C)C(O)C(C)C(O)C(C)C=CC=C(C)C(=O)N2)O4 (configuration not stated)
4. CCOC(=O)C(C(=O)OCC)=C1C=C(c2ccccc2)c2ccccc21
5. N#C/C(=C\c1cc(Br)c(O)c(Br)c1)c1cccnc1
6. COC(=O)C#CC1(O)C=CC(=O)C=C1
7. C[C@@]12CC[C@H]3[C@@H]4CCC(=O)N[C@@]4(C)CC[C@@H]3[C@@]1(C)CC[C@H](OC(=O)Cc1ccc(N(CCCl)CCCl)cc1)C2
8. CCCCOC(=O)NC(c1ccccc1)C(O)C(=O)OC1C[C@@]2(O)C(OC(=O)c3ccccc3)C3[C@](C)(C(=O)[C@H](OC(C)=O)C(=C1C)C2(C)C)[C@@H](O)C[C@H]1OC[C@@]31OC(C)=O (some centres not stated)

1: 1.49 µM (inactive); 2: 2.49 µM (inactive); 3: > 100 µM (inactive); 4: > 100 µM (inactive); 5: 43.8 µM (inactive); 6: 0.865 µM (active); 7: 15.5 µM (inactive); 8: 0.0134 µM (active)

Below is a list of compounds. For each, state its recorded GI50.
1. CC1=C(C#N)S(=O)(=O)c2c(oc(C)c2C)N1
2. C=Cc1cc(OC)c2c(c1)c(=O)oc1c2cc(OC)c2c(O)ccc(C3OC(C)C(O)C(C)(O)C3O)c21 (configuration not stated)
3. CCCCN(CCCC)C1=Nc2ccccc2-n2c(nnc2C(=O)OCC)C1
4. O=C(CSc1nnc(-c2ccccn2)s1)N/N=C/c1ccc([N+](=O)[O-])cc1
5. O=C1c2ccccc2-c2nc(-c3ccncc3)cc3c2c1nc1ccccc13
6. O=C(NCCC(F)(F)C(F)(F)C(F)(F)C(F)(F)F)NC1OC(CO)C(O)C(O)C1O (configuration not stated)
7. CCc1c[n+]2c(cc1C1=CN3c4ccccc4[C@]45CCN6C/C(=C/CO)[C@H](C[C@H]64)[C@@H]([C@@H]1O)[C@H]35)-c1[nH]c3ccccc3c1CC2

> 100 µM (inactive)
0.0317 µM (active)
47.2 µM (inactive)
76.4 µM (inactive)
13.4 µM (inactive)
> 100 µM (inactive)
> 50 µM (inactive)

Below is a list of compounds. For each, state its recorded GI50.
1. O=S(=O)(O)c1c(/N=N/c2c(O)ccc3ccccc23)ccc2ccccc12
2. COc1cccc(-c2cc(C(=O)Nc3ccc(Cl)cc3)nc(N)n2)c1
3. COc1cc(C2c3[nH]c4ccc(F)cc4c3C[C@H]3COC(=O)N23)cc(OC)c1O (some centres not stated)
4. CCOC(=O)COS(=O)(=O)C(F)(F)F
5. CN(C)CCCn1c(Cn2nc3ccccc3n2)nc2cc(C(F)(F)F)ccc21

> 100 µM (inactive)
42.6 µM (inactive)
12.1 µM (inactive)
> 100 µM (inactive)
19.2 µM (inactive)

Below is a list of compounds. For each, state its recorded GI50.
1. Cc1nc(O)nc2nc3ccc(Cl)cc3c(NC(C)(CO)CO)c12
2. Cc1ccc([Se](=C(C(=O)c2ccccc2)C(=O)c2ccccc2)c2ccc(C)cc2)cc1
3. COC1=C(OC)C(=O)C(Sc2ccc3ccccc3c2)=CC1=O
4. Fc1ccc(C(OCCN2CC3CC2CN3)c2ccc(F)cc2)cc1 (configuration not stated)
5. C=C(CO)CC(/C=C(\C)CC/C=C(\C)CCl)OC(C)=O (configuration not stated)
6. CC1NOC(=O)C1/N=N/c1ccc(Cl)cc1Cl (configuration not stated)

> 75.3 µM (inactive)
20.7 µM (inactive)
7.64 µM (inactive)
19.5 µM (inactive)
> 100 µM (inactive)
30.7 µM (inactive)

---

System: SK-MEL-2
procedure details: NCI tumour cell line growth inhibition, 48 h
The source made the active and inactive calls. No stated cut-off is given here; in the data, active = GI50 up to about 1.1 µM and inactive = higher.
Write down one outcome, taken from active, inactive

Called result for CC[P+](C#Cc1ccccc1)(c1ccccc1)c1ccccc1
inactive

Called result for COC1/C=C/OC2(C)Oc3c(C)c(O)c4c(c3C2=O)C(=O)C=C(NC(=O)/C(C)=C\C=C\C(C)C(OC=O)C(C)C(O)C(C)C(OC(C)=O)C1C)C4=O (stereo not drawn)
inactive

Called result for CN(C)CCCn1c(Cn2nc3ccccc3n2)nc2cc(C(F)(F)F)ccc21
inactive

Called result for CCCCOC(=O)NC(c1ccccc1)C(O)C(=O)OC1C[C@@]2(O)C(OC(=O)c3ccccc3)C3[C@](C)(C(=O)[C@H](OC(C)=O)C(=C1C)C2(C)C)[C@@H](O)C[C@H]1OC[C@@]31OC(C)=O (stereo partly drawn)
active

Called result for CCOC(=O)C(=Cc1ccc(C(=O)OC)cc1)C(=O)OCC
inactive

Called result for CCOC(=O)CCc1cn2cc(Br)nc(OC)c2n1
inactive

Called result for COc1ccc2c(c1OC)C(=O)O[C@@H]2[C@H]1c2cc3c(cc2CCN1C)OCO3
inactive

Called result for O=C1CC(=O)NC(NN2C(=O)/C(=C/c3ccc(Cl)cc3)N=C2c2ccccc2)=N1
inactive

---

Tested on: NCI-H522
procedure details: NCI tumour cell line growth inhibition, 48 h
Activity calls are given as the source filed them. Cut-off read from the data, not from the text of the source: active = GI50 up to about 1.1 µM and inactive = higher.
Write down one outcome, taken from active, inactive

Look over these answered cases.
# molecule, class label
records = [
    ("O=CNc1ccc2c(c1)C(=O)c1ccccc1-2", "inactive"),
    ("Cc1ccc(C)c(NC(=O)c2cc(-c3ccc([N+](=O)[O-])cc3)nc(N)n2)c1", "inactive"),
    ("Oc1cccc2c(Cl)ccnc12", "active"),
]

Called result for COc1ccc2c(CCNS(=O)(=O)c3ccccc3)c(C(C)=O)[nH]c2c1[N+](=O)[O-]
inactive

Called result for CCc1c[n+]2c(cc1C1=CN3c4ccccc4[C@]45CCN6C/C(=C/CO)[C@H](C[C@H]64)[C@@H]([C@@H]1O)[C@H]35)-c1[nH]c3ccccc3c1CC2
inactive

---

Record form. Attribute: GI50. Fill in for each entry.
System: COLO 205
procedure details: NCI tumour cell line growth inhibition, 48 h
Calls of active or inactive are those of the source. Rule as the data show it: active = GI50 up to about 1.1 µM and inactive = higher.

# compound, GI50
measured = [
    ("CCOc1ccc(NC(=O)/C(Cc2nc3ccccc3nc2O)=N\\O)cc1", "> 100 µM (inactive)"),
    ("Nc1ccc(-c2nc3cc(F)ccc3s2)cc1CO", "> 100 µM (inactive)"),
    ("O=C(C=P(c1ccccc1)(c1ccccc1)c1ccccc1)c1ccc(-c2cccc([N+](=O)[O-])c2)cc1", "1.75 µM (inactive)"),
    ("CC1=NN(C(=O)Nc2ccc(Cl)cc2)C(=O)C2CCC(=O)N12 (stereo not drawn)", "> 100 µM (inactive)"),
    ("Cc1nc2ccccc2c(=O)n1/N=C(\\N=N\\c1cccc(Cl)c1)c1ccccc1Cl", "> 10 µM (inactive)"),
    ("O=C(Nc1ccc(Cl)c(Cl)c1)C(=O)Nn1c(S)nc2ccccc2c1=O", "> 100 µM (inactive)"),
    ("CCOC(CBr)OC1C(=O)OCC1(C)C (stereo not drawn)", "> 100 µM (inactive)"),
    ("Cc1ccc(CCNC(=S)SCC(NC(=O)CCC(N)C(=O)O)C(=O)NCC(=O)O)cc1 (stereo not drawn)", "2.51 µM (inactive)"),
    ("O=C1c2ccccc2S(=O)(=O)c2cc(-c3nn[nH]n3)ccc21 [DOXANTRAZOLE]", "> 100 µM (inactive)"),
    ("CC(C)C(OC(=O)c1cc(NC(=S)c2ccccc2)ccc1Cl)C(C)C", "16.1 µM (inactive)"),
]

Below is a list of compounds. For each, state its recorded GI50.
1. CC1C(O)=C(O)c2ccccc2N1O (stereo not drawn)
2. C/C(=N\NC(N)=O)C(CN1CCCCC1)C(c1ccccc1)c1c(O)c2ccccc2oc1=O (stereo not drawn)
3. CN(C)CCCn1c(Cn2nc3ccccc3n2)nc2cc(C(F)(F)F)ccc21

> 100 µM (inactive)
> 100 µM (inactive)
15.3 µM (inactive)
